molecular target: Cyclin-dependent kinase 1 (Mus musculus); assay: Inhibition of Cyclin-dependent kinase 1 in P19 cells
Sequence (P11440 whole entry): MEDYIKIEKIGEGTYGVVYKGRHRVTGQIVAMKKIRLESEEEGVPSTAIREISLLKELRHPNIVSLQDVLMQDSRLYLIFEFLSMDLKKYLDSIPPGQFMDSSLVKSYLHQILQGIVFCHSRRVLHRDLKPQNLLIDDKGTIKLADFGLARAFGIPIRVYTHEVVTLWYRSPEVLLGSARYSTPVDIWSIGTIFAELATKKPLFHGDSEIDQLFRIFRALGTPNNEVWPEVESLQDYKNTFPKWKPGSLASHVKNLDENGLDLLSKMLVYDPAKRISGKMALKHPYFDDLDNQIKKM
So basically: is IC50 under 1 µM? Then 1.0. Not under? Then 0.0.

Compound: CN(C)CCCn1nc(C2=C(c3cn(-c4ccc5ccccc5c4)c4ccccc34)C(=O)NC2=O)c2ccccc21
Label Value: 0.0
//
Compound: CN[C@@H]1C[C@H]2O[C@@](C)([C@@H]1OC)n1c3ccccc3c3c4c(c5c6ccccc6n2c5c31)C(=O)NC4 [STAUROSPORINE]
Label Value: 1.0
//
Compound: CN(C)CCCn1nc(C2=C(c3cn(-c4csc5ccccc45)c4ccccc34)C(=O)NC2=O)c2ccccc21
Label Value: 0.0
//
Compound: CN(C)CCCn1nc(C2=C(c3cn(-c4cnc5ccccc5c4)c4ccccc34)C(=O)NC2=O)c2ccccc21
Label Value: 0.0
//
Compound: CN(C)CCCn1nc(C2=C(c3cn(-c4cccnc4)c4ccccc34)C(=O)NC2=O)c2ccccc21
Label Value: 1.0
//
Compound: CN(C)CCCn1nc(C2=C(c3cn(-c4cccc5ccccc45)c4ccccc34)C(=O)NC2=O)c2ccccc21
Label Value: 0.0
